BACE1 (Homo sapiens, UniProt P56817) IC50 data
Sequence (P56817 46-501): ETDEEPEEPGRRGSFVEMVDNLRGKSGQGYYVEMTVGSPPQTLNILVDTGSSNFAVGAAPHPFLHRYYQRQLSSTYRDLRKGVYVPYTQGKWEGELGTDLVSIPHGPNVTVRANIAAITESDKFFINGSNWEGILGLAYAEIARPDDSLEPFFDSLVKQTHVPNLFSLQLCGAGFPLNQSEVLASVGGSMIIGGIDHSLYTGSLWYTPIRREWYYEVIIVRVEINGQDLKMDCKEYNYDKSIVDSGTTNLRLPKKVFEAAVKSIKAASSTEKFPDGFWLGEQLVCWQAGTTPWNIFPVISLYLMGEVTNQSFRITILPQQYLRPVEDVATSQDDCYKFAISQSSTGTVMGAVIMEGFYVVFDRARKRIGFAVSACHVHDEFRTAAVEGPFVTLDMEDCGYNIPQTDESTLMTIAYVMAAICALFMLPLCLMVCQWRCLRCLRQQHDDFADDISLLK

>>> print(df.to_string())
                                   molecule  measured_property  reading
0  COc1cc(O)cc(O)c1C(=O)/C=C/c1ccccc1 [Cardamonin, 2′,4′-dihydroxy-6′-methoxychalcone]               IC50  4.35 µM
1  COc1cc(O)c2c(c1)OC(c1ccccc1)CC2=O (stereo not drawn) [Pinostrobin, 5-hydroxy-7methoxyflavanone]               IC50  28.4 µM

Next, consider the following molecule.
Measured IC50 of O=C1CC(c2ccccc2)Oc2cc(O)cc(O)c21 (stereo not drawn) [Pinocembrin, 5,7-dihydroxyflavanone] : 27 µM

Hey, just so you know, these numbers are from paper PMC6471523.
